Test system: NCI-H23
Test: relative viability (nuclei count vs DMSO), 5 days (fraction); higher = more cells survive
Details: first compound 2 µM
Provide the recorded relative viability for the entries that follow.
One number for each entry.

molecule: COCC1(CO)C(=O)C2CCN1CC2 (centres undefined) [PRIMA-1MET] + Nc1ncn([C@H]2C[C@H](O)[C@@H](CO)O2)c(=O)n1 [Decitabine] (partner 2 µM)
relative viability: 0.282
--
molecule: COCC1(CO)C(=O)C2CCN1CC2 (centres undefined) [PRIMA-1MET] + COc1cc2c(Oc3ccc(NC(=O)C4(C(=O)Nc5ccc(F)cc5)CC4)cc3F)ccnc2cc1OCCCN1CCOCC1 [Foretinib] (partner 0.25 µM)
relative viability: 0.861
--
molecule: COCC1(CO)C(=O)C2CCN1CC2 (centres undefined) [PRIMA-1MET] + CS(=O)(=O)N1CCN(Cc2cc3nc(-c4cccc5[nH]ncc45)nc(N4CCOCC4)c3s2)CC1 [Pictilisib] (partner 1 µM)
relative viability: 0.323

Now look at this entry.
-- ask Value lookup for relative viability; key = COCC1(CO)C(=O)C2CCN1CC2 (centres undefined) [PRIMA-1MET] + NC(=O)Nc1cc(-c2cccc(F)c2)sc1C(=O)N[C@H]1CCCNC1 [AZD7762] (partner 0.2 µM)
-- reply 0.231
